// provenance: paper PMC10714400

Record form. Attribute: MIC E. coli W3110, full MH at pH 7.4. Fill in for each entry.
- Tested on: E. coli W3110
- test.conditions: CSV; full MH at pH 7.4
Where a SMILES comes first, the peptide text is derived from it. [ ]: non-standard residue; d: D form. Nleu = CC(C)CNCC(=O)O; Nlys = NCCCCNCC(=O)O
Kindly answer with a numeric value in ug/mL, unit omitted.

Measured MIC E. coli W3110, full MH at pH 7.4 of CC(C)C[C@H](NC(=O)CN(CC(C)C)C(=O)[C@H](CC(C)C)NC(=O)CN(CCCCN)C(=O)[C@H](CC(C)C)NC(=O)CN(CC(C)C)C(=O)[C@H](CCCCN)NC(=O)CN(CC(C)C)C(=O)[C@H](CC(C)C)NC(=O)CN(CCCCN)C(=O)[C@@H](N)CCCCN)C(N)=O [EB9, KkLlKlLkLlL] (H-K[Nlys]L[Nleu]K[Nleu]L[Nlys]L[Nleu]L-NH2) : 16

Value of measured MIC E. coli W3110, full MH at pH 7.4 for the entry CC(C)C[C@H](NC(=O)[C@H](CC(C)C)NC(=O)[C@H](CC(C)C)NC(=O)[C@@H](CCCCN)NC(=O)[C@H](CC(C)C)NC(=O)[C@H](CC(C)C)NC(=O)[C@@H](CCCCN)NC(=O)[C@H](CC(C)C)NC(=O)[C@H](CC(C)C)NC(=O)[C@@H](CCCCN)NC(=O)[C@H](N)CCCCN)C(N)=O [ln69, kkLLkLLkLLL, reference compound] (H-[dK][dK]LL[dK]LL[dK]LLL-NH2) : 4

----------
Provide the recorded MIC A. baumannii ATCC19606 Full MH 8.5 for the entries that follow.
- Test system: A. baumannii ATCC19606
- test.conditions: Table S2; full MH, pH 8.5
Where a SMILES comes first, the peptide text is derived from it. [ ]: non-standard residue; d: D form. Nleu = CC(C)CNCC(=O)O; Nlys = NCCCCNCC(=O)O
# number only, unit µg/mL dropped from output

Given item CC(C)C[C@H](NC(=O)CN(CCCCN)C(=O)[C@H](CC(C)C)NC(=O)[C@H](CC(C)C)NC(=O)[C@H](CCCCN)NC(=O)[C@H](CC(C)C)NC(=O)[C@H](CC(C)C)NC(=O)[C@H](CCCCN)NC(=O)CNCCCCN)C(=O)N[C@@H](CC(C)C)C(=O)N(CC(N)=O)CC(C)C [EB2, kKLLKLLkLLl] (H-[Nlys]KLLKLL[Nlys]LL[Nleu]-NH2) , the value recorded as its MIC A. baumannii ATCC19606 Full MH 8.5 is 32

Briefly, MIC A. baumannii ATCC19606 Full MH 8.5 measured for CC(C)C[C@H](NC(=O)[C@H](CC(C)C)NC(=O)[C@H](CC(C)C)NC(=O)[C@H](CCCCN)NC(=O)[C@H](CC(C)C)NC(=O)[C@H](CC(C)C)NC(=O)CN(CCCCN)C(=O)[C@H](CC(C)C)NC(=O)[C@H](CC(C)C)NC(=O)CN(CCCCN)C(=O)CNCCCCN)C(N)=O [EB6, kkLLkLLKLLL] (H-[Nlys][Nlys]LL[Nlys]LLKLLL-NH2) : 8

----------
- System: S. aureus COL (MRSA)
- test.conditions: COL, 4 h, pH 8.5
Where a SMILES comes first, the peptide text is derived from it. [ ]: non-standard residue; d: D form. Nleu = CC(C)CNCC(=O)O; Nlys = NCCCCNCC(=O)O
property.name: MIC S. aureus COL (MRSA), full MH at pH 8.5 (ug/mL)
Provide the reading as a plain figure in ug/mL.

CC(C)C[C@H](NC(=O)[C@H](CC(C)C)NC(=O)[C@H](CCCCN)NC(=O)[C@@H](N)CCCCN)C(=O)N[C@@H](CCCCN)C(=O)N[C@@H](CC(C)C)C(=O)N[C@@H](CC(C)C)C(=O)N[C@@H](CCCCN)C(=O)N(CC(=O)N(CC(=O)N(CC(N)=O)CC(C)C)CC(C)C)CC(C)C [EB3] (H-KKLLKLLK[Nleu][Nleu][Nleu]-NH2) has a reported MIC S. aureus COL (MRSA), full MH at pH 8.5 of 32

Data point: CC(C)C[C@H](NC(=O)[C@H](CC(C)C)NC(=O)[C@H](CC(C)C)NC(=O)CN(CCCCN)C(=O)[C@H](CC(C)C)NC(=O)[C@H](CC(C)C)NC(=O)CN(CCCCN)C(=O)[C@H](CC(C)C)NC(=O)[C@H](CC(C)C)NC(=O)CN(CCCCN)C(=O)CNCCCCN)C(N)=O [EB7, kkLLkLLkLLL] (H-[Nlys][Nlys]LL[Nlys]LL[Nlys]LLL-NH2) ; MIC S. aureus COL (MRSA), full MH at pH 8.5 = 6

The molecule listed as CC(C)CN(CC(N)=O)C(=O)CN(CC(C)C)C(=O)CN(CC(C)C)C(=O)[C@H](CCCCN)NC(=O)CN(CC(C)C)C(=O)CN(CC(C)C)C(=O)[C@H](CCCCN)NC(=O)CN(CC(C)C)C(=O)CN(CC(C)C)C(=O)[C@H](CCCCN)NC(=O)[C@@H](N)CCCCN [EB8, KKllKllKlll] (H-KK[Nleu][Nleu]K[Nleu][Nleu]K[Nleu][Nleu][Nleu]-NH2) shows MIC S. aureus COL (MRSA), full MH at pH 8.5 equal to 16

CC(C)C[C@H](NC(=O)CN(CCCCN)C(=O)[C@H](CC(C)C)NC(=O)[C@H](CC(C)C)NC(=O)[C@H](CCCCN)NC(=O)[C@H](CC(C)C)NC(=O)[C@H](CC(C)C)NC(=O)[C@H](CCCCN)NC(=O)CNCCCCN)C(=O)N[C@@H](CC(C)C)C(=O)N(CC(N)=O)CC(C)C [EB2, kKLLKLLkLLl] (H-[Nlys]KLLKLL[Nlys]LL[Nleu]-NH2) has a reported MIC S. aureus COL (MRSA), full MH at pH 8.5 of 32

----------
- System: human red blood cells (hRBC)
- assay.protocol: Minimum hemolytic concentration (MHC)
- Assay type: cell-based
Where a SMILES comes first, the peptide text is derived from it. [ ]: non-standard residue; d: D form. Nleu = CC(C)CNCC(=O)O; Nlys = NCCCCNCC(=O)O
property.name: MHC

So, CC(C)C[C@H](NC(=O)[C@H](CCCCN)NC(=O)[C@@H](N)CCCCN)C(=O)N[C@@H](CC(C)C)C(=O)N[C@@H](CCCCN)C(=O)N(CC(=O)N(CC(=O)N(CCCCN)CC(=O)N(CC(=O)N(CC(=O)N(CC(N)=O)CC(C)C)CC(C)C)CC(C)C)CC(C)C)CC(C)C [EB4, KKLLKllklll] (H-KKLLK[Nleu][Nleu][Nlys][Nleu][Nleu][Nleu]-NH2) ? Its MHC was >2000 µg/mL

Record CC(C)C[C@H](NC(=O)[C@H](CC(C)C)NC(=O)[C@H](CC(C)C)NC(=O)CN(CCCCN)C(=O)[C@H](CC(C)C)NC(=O)[C@H](CC(C)C)NC(=O)CN(CCCCN)C(=O)[C@H](CC(C)C)NC(=O)[C@H](CC(C)C)NC(=O)CN(CCCCN)C(=O)CNCCCCN)C(N)=O [EB7, kkLLkLLkLLL] (H-[Nlys][Nlys]LL[Nlys]LL[Nlys]LLL-NH2) . Reported MHC: >2000 µg/mL

Sample CC(C)C[C@H](NC(=O)[C@H](CC(C)C)NC(=O)[C@H](CC(C)C)NC(=O)[C@H](CCCCN)NC(=O)[C@H](CC(C)C)NC(=O)[C@H](CC(C)C)NC(=O)CN(CCCCN)C(=O)CN(CC(C)C)C(=O)CN(CC(C)C)C(=O)CN(CCCCN)C(=O)CNCCCCN)C(N)=O [EB5, kkllkLLKLLL] (H-[Nlys][Nlys][Nleu][Nleu][Nlys]LLKLLL-NH2) ; MHC observed: 1000 µg/mL

Measured MHC, CC(C)C[C@H](NC(=O)[C@H](CC(C)C)NC(=O)[C@H](CCCCN)NC(=O)[C@@H](N)CCCCN)C(=O)N[C@@H](CCCCN)C(=O)N[C@@H](CC(C)C)C(=O)N[C@@H](CC(C)C)C(=O)N[C@@H](CCCCN)C(=O)N(CC(=O)N(CC(=O)N(CC(N)=O)CC(C)C)CC(C)C)CC(C)C [EB3] (H-KKLLKLLK[Nleu][Nleu][Nleu]-NH2) : >2000 µg/mL

The recorded MHC for CC(C)C[C@H](NC(=O)CN(CC(C)C)C(=O)[C@H](CCCCN)NC(=O)CNCCCCN)C(=O)N(CCCCN)CC(=O)N[C@@H](CC(C)C)C(=O)N(CC(=O)N[C@@H](CCCCN)C(=O)N(CC(=O)N[C@@H](CC(C)C)C(=O)N(CC(N)=O)CC(C)C)CC(C)C)CC(C)C [EB10, kKlLkLlKlLl] (H-[Nlys]K[Nleu]L[Nlys]L[Nleu]K[Nleu]L[Nleu]-NH2) is >2000 µg/mL

Query CC(C)C[C@H](NC(=O)[C@H](CCCCN)NC(=O)CNCCCCN)C(=O)N[C@@H](CC(C)C)C(=O)N[C@@H](CCCCN)C(=O)N[C@@H](CC(C)C)C(=O)N[C@@H](CC(C)C)C(=O)N[C@@H](CCCCN)C(=O)N[C@@H](CC(C)C)C(=O)N[C@@H](CC(C)C)C(=O)N(CC(N)=O)CC(C)C [EB1] (H-[Nlys]KLLKLLKLL[Nleu]-NH2; N-terminus assumed) yields MHC of 1000 µg/mL

Reported MHC ( CC(C)C[C@H](NC(=O)CN(CC(C)C)C(=O)[C@H](CC(C)C)NC(=O)CN(CCCCN)C(=O)[C@H](CC(C)C)NC(=O)CN(CC(C)C)C(=O)[C@H](CCCCN)NC(=O)CN(CC(C)C)C(=O)[C@H](CC(C)C)NC(=O)CN(CCCCN)C(=O)[C@@H](N)CCCCN)C(N)=O [EB9, KkLlKlLkLlL] (H-K[Nlys]L[Nleu]K[Nleu]L[Nlys]L[Nleu]L-NH2) ) = >2000 µg/mL
